TGT: Carbonic anhydrase 12 (Homo sapiens, UniProt O43570)
Sequence (O43570 whole entry): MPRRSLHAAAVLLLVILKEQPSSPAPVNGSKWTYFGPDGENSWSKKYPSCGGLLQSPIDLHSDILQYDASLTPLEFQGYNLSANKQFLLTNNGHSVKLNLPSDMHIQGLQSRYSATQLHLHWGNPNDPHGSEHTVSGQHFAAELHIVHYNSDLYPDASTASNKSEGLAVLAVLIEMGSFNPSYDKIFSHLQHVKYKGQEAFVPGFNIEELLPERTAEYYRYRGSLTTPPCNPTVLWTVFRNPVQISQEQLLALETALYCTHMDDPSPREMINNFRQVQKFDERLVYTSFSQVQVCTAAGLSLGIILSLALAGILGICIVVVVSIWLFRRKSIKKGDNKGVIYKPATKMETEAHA
ASSAY INFO: Inhibition of human carbonic anhydrase 12 incubated for 15 mins prior to testing by stopped-flow CO2 hydration assay
ASSAY READOUT: pKi
Quick note: pKi means taking -log10 of the concentration in moles per liter.

Item CC1CCCC2(C1)NC(=O)N(CC(=O)NCCc1ccc(S(N)(=O)=O)cc1)C2=O (stereo not given) : provide pKi
7.08

Return pKi (reported value) for this compound: NS(=O)(=O)c1ccc(CNC(=O)CN2C(=O)NC3(CCCCCC3)C2=O)cc1
7.21

Answer with the recorded pKi for the compound listed here: NS(=O)(=O)c1ccc(CNC(=O)CN2C(=O)NC3(CCCCC3)C2=O)cc1
6.14

Using known records, supply pKi for CC1CCCC2(C1)NC(=O)N(CC(=O)NCc1ccc(S(N)(=O)=O)cc1)C2=O (stereo not given)
7.48

Please look at this compound and report its pKi: NS(=O)(=O)c1ccc(CCNC(=O)CN2C(=O)NC3(CCCCC3)C2=O)cc1
7.06

----------
ASSAY READOUT: Ki

Lab note: Carbonic anhydrase 3 (Homo sapiens, UniProt P07451) assay, enter Ki for NS(=O)(=O)c1ccc(CCNC(=O)CN2C(=O)NC3(CCCCC3)C2=O)cc1 here
Sequence (P07451 whole entry): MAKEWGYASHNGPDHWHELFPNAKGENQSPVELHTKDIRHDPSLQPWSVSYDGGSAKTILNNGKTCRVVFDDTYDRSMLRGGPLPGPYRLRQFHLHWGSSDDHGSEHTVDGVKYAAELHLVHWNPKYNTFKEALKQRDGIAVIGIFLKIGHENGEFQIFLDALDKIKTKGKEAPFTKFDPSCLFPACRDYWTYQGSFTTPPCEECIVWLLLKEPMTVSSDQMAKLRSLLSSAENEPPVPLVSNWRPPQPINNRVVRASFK
> 10 µM

For Carbonic anhydrase 3 (Homo sapiens, UniProt P07451), give the measured Ki of the entry NS(=O)(=O)c1ccc(CCNC(=O)CN2C(=O)NC3(CCCCCC3)C2=O)cc1
> 10 µM

Give the observed Ki of CC1CCCC2(C1)NC(=O)N(CC(=O)NCCc1ccc(S(N)(=O)=O)cc1)C2=O (stereo not drawn) for Carbonic anhydrase 3 (Homo sapiens, UniProt P07451).
> 10 µM

----------
TGT: Carbonic anhydrase 6 (Homo sapiens, UniProt P23280)
Sequence (P23280 whole entry): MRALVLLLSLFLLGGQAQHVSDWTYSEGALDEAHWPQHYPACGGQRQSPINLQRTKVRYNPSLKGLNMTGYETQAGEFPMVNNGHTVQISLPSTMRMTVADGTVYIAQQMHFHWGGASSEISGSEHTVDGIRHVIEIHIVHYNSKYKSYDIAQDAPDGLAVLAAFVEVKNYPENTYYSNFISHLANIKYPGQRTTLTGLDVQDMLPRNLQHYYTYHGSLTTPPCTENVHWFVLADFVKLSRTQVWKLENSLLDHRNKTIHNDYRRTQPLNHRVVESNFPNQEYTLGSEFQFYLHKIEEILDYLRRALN
ASSAY READOUT: Ki

Give recorded Ki. NS(=O)(=O)c1ccc(CCNC(=O)CN2C(=O)NC3(CCCCCC3)C2=O)cc1
> 10 µM

Please report the measured Ki for CC1CCCC2(C1)NC(=O)N(CC(=O)NCCc1ccc(S(N)(=O)=O)cc1)C2=O (configuration not stated)
> 10 µM

----------
Record set of pKi for target or system Carbonic anhydrase 4 (Homo sapiens, UniProt P22748).
Schema: pKi number; meaning minus log10 of the concentration expressed in molar units.

Quickly give me recorded pKi for CC1CCCC2(C1)NC(=O)N(CC(=O)NCCc1ccc(S(N)(=O)=O)cc1)C2=O (configuration not stated)
5.14

Please look at this compound and report its pKi: NS(=O)(=O)c1ccc(CCNC(=O)CN2C(=O)NC3(CCCC3)C2=O)cc1
5.02

----------
I'd be grateful if you could share measured Ki for these entries.
// return numeric value only (unit: nM, not printed)

Specify the recorded Ki for NS(=O)(=O)c1ccc(CCNC(=O)CN2C(=O)NC3(CCCCCC3)C2=O)cc1 , system: UniProt:Q16790.
33.1

Find the measured Ki of CC1CCCC2(C1)NC(=O)N(CC(=O)Nc1ccc([Se]Cc3ccc(S(N)(=O)=O)cc3)cc1)C2=O (centres undefined) with UniProt:Q16790 as test system.
17.8

Please respond with reported Ki (system UniProt:Q16790) for NS(=O)(=O)c1ccc(CNC(=O)CN2C(=O)NC3(CCCCCC3)C2=O)cc1 .
3.5

Give measured Ki for NS(=O)(=O)c1ccc(C[Se]c2ccc(NC(=O)CN3C(=O)NC4(CCCCC4)C3=O)cc2)cc1 (UniProt:Q16790).
3.3

# return Ki of NS(=O)(=O)c1ccc(CCNC(=O)CN2C(=O)NC3(CCCCC3)C2=O)cc1 (system: UniProt:Q16790)
76.7

Report Ki under test system UniProt:Q16790 for NS(=O)(=O)c1ccc(CCNC(=O)CN2C(=O)NC3(CCCC3)C2=O)cc1 .
122

Please respond with reported Ki (system UniProt:Q16790) for CC1CCCC2(C1)NC(=O)N(CC(=O)NCc1ccc(S(N)(=O)=O)cc1)C2=O (centres undefined) .
229

Print UniProt:Q16790 Ki for CC1CCCC2(C1)NC(=O)N(CC(=O)Nc1ccc(S(N)(=O)=O)cc1)C2=O (centres undefined) .
2.6

Give the observed Ki of NS(=O)(=O)c1ccc(NC(=O)CN2C(=O)NC3(CCCC3)C2=O)cc1 for UniProt:Q16790.
11.9

----------
ASSAY READOUT: pKi
The read-out pKi is expressed as -log10 of concentration in moles per litre.

Enter pKi (test system Carbonic anhydrase 12 (Homo sapiens)) for NS(=O)(=O)c1ccc(C[Se]c2ccc(NC(=O)CN3C(=O)NC4(CCCCC4)C3=O)cc2)cc1
8.39

# return pKi for NS(=O)(=O)c1ccc(CNC(=O)CN2C(=O)NC3(CCCC3)C2=O)cc1 , test system: Carbonic anhydrase 12 (Homo sapiens)
8.02

Check Carbonic anhydrase 12 (Homo sapiens) data and give pKi for NS(=O)(=O)c1ccc(NC(=O)CN2C(=O)NC3(CCCCCC3)C2=O)cc1 .
7.37

----------
Quick note: these are pKi numbers for system: Carbonic anhydrase 1 (Homo sapiens)
Sequence (P00915 whole entry): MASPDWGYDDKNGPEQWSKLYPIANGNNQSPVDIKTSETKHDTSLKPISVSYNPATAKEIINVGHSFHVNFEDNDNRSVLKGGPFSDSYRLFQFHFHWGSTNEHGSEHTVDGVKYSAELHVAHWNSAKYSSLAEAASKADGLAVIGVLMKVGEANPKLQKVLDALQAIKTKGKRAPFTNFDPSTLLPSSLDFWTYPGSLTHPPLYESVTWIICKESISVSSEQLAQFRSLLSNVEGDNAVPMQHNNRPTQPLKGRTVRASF
Note on units: pKi is unitless, being -log10 of a concentration expressed in mol/L.

Answer with reported pKi of CC1CCCC2(C1)NC(=O)N(CC(=O)NCc1ccc(S(N)(=O)=O)cc1)C2=O (configuration not stated)
6.07

Supply measured pKi of NS(=O)(=O)c1ccc(C[Se]c2ccc(NC(=O)CN3C(=O)NC4(CCCCC4)C3=O)cc2)cc1 in your reply.
7.20

Note down pKi recorded for NS(=O)(=O)c1ccc(NC(=O)CN2C(=O)NC3(CCCCCC3)C2=O)cc1
6.62

Kindly indicate its recorded pKi. Item: NS(=O)(=O)c1ccc(NC(=O)CN2C(=O)NC3(CCCC3)C2=O)cc1
6.85

Quickly give me recorded pKi for CC1CCCC2(C1)NC(=O)N(CC(=O)Nc1ccc([Se]Cc3ccc(S(N)(=O)=O)cc3)cc1)C2=O (configuration not stated)
7.21

Find the measured pKi of NS(=O)(=O)c1ccc(CCNC(=O)CN2C(=O)NC3(CCCCCC3)C2=O)cc1 and report it.
6.31

Write down pKi measured for item NS(=O)(=O)c1ccc(CCNC(=O)CN2C(=O)NC3(CCCCC3)C2=O)cc1
6.20

----------
Please provide measured pKi for the entries that follow.
The value called pKi is obtained by taking minus log10 of the concentration in mol/L.

Report value only: pKi, UniProtKB P00918, NS(=O)(=O)c1ccc(C[Se]c2ccc(NC(=O)CN3C(=O)NC4(CCCCC4)C3=O)cc2)cc1
7.71

System UniProtKB P00918. Read-out pKi. Item NS(=O)(=O)c1ccc(CNC(=O)CN2C(=O)NC3(CCCCCC3)C2=O)cc1 . Report value.
7.33

Recall the reported pKi of NS(=O)(=O)c1ccc(NC(=O)CN2C(=O)NC3(CCCCC3)C2=O)cc1 when tested on UniProtKB P00918.
8.51

Provide UniProtKB P00918 pKi reading for CC1CCCC2(C1)NC(=O)N(CC(=O)NCCc1ccc(S(N)(=O)=O)cc1)C2=O (centres undefined) .
9.15

Tell me its pKi on UniProtKB P00918: NS(=O)(=O)c1ccc(CNC(=O)CN2C(=O)NC3(CCCCC3)C2=O)cc1
7.68

Write down measured pKi (UniProtKB P00918) for this compound. CC1CCCC2(C1)NC(=O)N(CC(=O)NCc1ccc(S(N)(=O)=O)cc1)C2=O (centres undefined)
8.08

Under UniProtKB P00918: report pKi of NS(=O)(=O)c1ccc(NC(=O)CN2C(=O)NC3(CCCC3)C2=O)cc1 .
9.15

Fill: pKi (UniProtKB P00918) for this compound CC1CCCC2(C1)NC(=O)N(CC(=O)Nc1ccc([Se]Cc3ccc(S(N)(=O)=O)cc3)cc1)C2=O (centres undefined)
9.15

Write down measured pKi (UniProtKB P00918) for this compound. NS(=O)(=O)c1ccc(CNC(=O)CN2C(=O)NC3(CCCC3)C2=O)cc1
8.82

----------
Please provide measured Ki for the entries that follow.
Expressed in µM, but write only the number.

Name the recorded Ki of NS(=O)(=O)c1ccc(CCNC(=O)CN2C(=O)NC3(CCCCC3)C2=O)cc1 , assay system Carbonic anhydrase 5A, mitochondrial (Homo sapiens).
0.534

State Ki (Carbonic anhydrase 5A, mitochondrial (Homo sapiens)) of NS(=O)(=O)c1ccc(CCNC(=O)CN2C(=O)NC3(CCCCCC3)C2=O)cc1 .
6.18

Jot down Ki (Carbonic anhydrase 5A, mitochondrial (Homo sapiens)) of CC1CCCC2(C1)NC(=O)N(CC(=O)NCCc1ccc(S(N)(=O)=O)cc1)C2=O (stereo not drawn) .
8.68

----------
TGT: Carbonic anhydrase 7 (Homo sapiens)
Sequence (P43166 whole entry): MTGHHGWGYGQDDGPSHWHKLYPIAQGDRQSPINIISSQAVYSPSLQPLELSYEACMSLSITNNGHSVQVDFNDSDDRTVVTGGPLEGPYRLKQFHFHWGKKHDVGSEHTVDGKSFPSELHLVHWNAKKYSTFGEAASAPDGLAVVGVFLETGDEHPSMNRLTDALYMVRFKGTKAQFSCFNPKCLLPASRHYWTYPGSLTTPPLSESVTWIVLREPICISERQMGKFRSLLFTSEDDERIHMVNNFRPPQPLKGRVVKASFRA
Can you tell me Ki for the items I'm about to list?
Could you give the number and then its unit, please?

Using Carbonic anhydrase 7 (Homo sapiens) as the test system, report measured Ki of NS(=O)(=O)c1ccc(CCNC(=O)CN2C(=O)NC3(CCCCCC3)C2=O)cc1 .
5.1 nM

Give Carbonic anhydrase 7 (Homo sapiens) Ki for the following compound: CC1CCCC2(C1)NC(=O)N(CC(=O)Nc1ccc(S(N)(=O)=O)cc1)C2=O (stereo not given)
1.5 nM

Give Ki only, for NS(=O)(=O)c1ccc(C[Se]c2ccc(NC(=O)CN3C(=O)NC4(CCCCCC4)C3=O)cc2)cc1 , using Carbonic anhydrase 7 (Homo sapiens) data.
4.7 nM

Provide the reported Ki (system: Carbonic anhydrase 7 (Homo sapiens)) for CC1CCCC2(C1)NC(=O)N(CC(=O)Nc1ccc([Se]Cc3ccc(S(N)(=O)=O)cc3)cc1)C2=O (stereo not given)
4.7 nM

Send back Carbonic anhydrase 7 (Homo sapiens) Ki of NS(=O)(=O)c1ccc(C[Se]c2ccc(NC(=O)CN3C(=O)NC4(CCCCC4)C3=O)cc2)cc1 only.
0.2 nM
